# test.details: NCI Yeast Anticancer Drug Screen. Data for the sgs1 strain (AID 173);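 also: 0% = growth of vehicle-only control cultures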
# measurement.setup: S. cerevisiae sgs1 mutant, at 1.2 µM, hits give high values
The panel holds about 79,000 compounds, 15% with a hit somewhere; the sample as a whole holds those more often.
measured.attribute: growth inhibition (%)
The figure you give is taken to be in %; do not add the unit.

The following compounds have reported results that may help.
compound | growth inhibition [%]
O=C(O)CNc1ccc(Cl)c(Cl)c1 | -3
Cn1c(N)nc(-c2ccc(Cl)cc2)c1SSc1c(-c2ccc(Cl)cc2)nc(N)n1C | 0
Nc1ccn(C2OC(CO)C3[O][Sn]([c]4ccccc4)([c]4ccccc4)[O]C32)c(=O)n1 (stereo not drawn) | 0
NC(=O)NN=C(CS)CS | 0
Cc1ccc(Cl)c2[nH]c(-c3ccccc3)cc(=O)c12 | -3
CC(=O)N/N=C/C(C)(C)C(C)(C)/C=N/NC(C)=O | -6
O=[N+]([O-])c1cc2no[n+]([O-])c2cc1N1CCCCC1 | 51
CC[n+]1ccc2c(C)c3[nH]c4ccc(O)cc4c3c(C)c2c1 | 9

INPUT: # lookup: growth inhibition of CC(O)C(O)C(O)C(/C=N\Nc1ccccc1)=N/Nc1ccccc1 (stereo not drawn)
OUTPUT: 1

INPUT: Using the record for "O=C(COC(=O)c1cc(O)c(O)c(O)c1)c1ccc(-c2ccccc2)cc1" , report its growth inhibition.
OUTPUT: -1
